Target: ligand binding domain of human FXR (Homo sapiens (Human))
Assay: FXR ligand binding assay (LanthaScreen TR-FRET, SRC2-2 peptide recruitment)
Conditions: -log EC50, concentration required to produce 50% activation
PROPERTY: pEC50
// response body must contain only the number

# annotated cases, reported pEC50 shown
C[C@@H]1[C@@H]2C[C@@H](C[C@H]2OCc2c(-c3c(Cl)cccc3Cl)noc2C2CC2)N1c1ccc(C(=O)O)cn1 : 6.8
C[C@H]1[C@H]2C[C@H](C[C@@H]2OCc2c(-c3c(Cl)cccc3Cl)noc2C2CC2)N1c1ccc(C(=O)O)cc1F : 6.3

Task: Requested read-out pEC50, target or system ligand binding domain of human FXR (Homo sapiens (Human)), entry O=C(O)c1cc(O[C@@H]2CCOC2)c2nc(N3C[C@@H]4C[C@H]3C[C@H]4OCc3c(-c4c(F)cccc4Cl)noc3C3CC3)sc2c1
Result: 8.6

Task: What about this compound? O=C(O)[C@@H]1CCc2cc(N3C[C@@H]4C[C@H]3C[C@H]4OCc3c(-c4c(Cl)cccc4Cl)noc3C3CC3)ccc2C1 (single isomer, unassigned)
Result: 8

Task: What about this compound? O=C(O)c1cc(O[C@H]2CCOC2)c2nc(N3C[C@@H]4C[C@H]3C[C@H]4OCc3c(-c4c(Cl)cccc4Cl)noc3C3CC3)sc2c1
Result: 8.8

Task: What about this compound? O=C(NS(=O)(=O)C1CC1)c1ccc(N2C[C@@H]3C[C@H]2C[C@H]3OCc2c(-c3c(Cl)cccc3Cl)noc2C2(F)CC2)c(F)c1
Result: 8.5

Task: What about this compound? CCOCCOCCS(=O)(=O)NC(=O)c1ccc(N2C[C@@H]3C[C@H]2C[C@H]3OCc2c(-c3c(Cl)cccc3Cl)noc2C2CC2)c(F)c1
Result: 8.2

Task: What about this compound? CCc1cc(C(=O)O)ccc1N1C[C@@H]2C[C@H]1C[C@H]2OCc1c(-c2c(Cl)cccc2Cl)noc1C1CC1
Result: 9.4

Task: What about this compound? O=C(O)CCc1ccc(N2C[C@@H]3C[C@H]2C[C@H]3OCc2c(-c3c(Cl)cccc3Cl)noc2C2CC2)cc1F
Result: 8.3

Task: What about this compound? CC[C@@H]1[C@@H]2C[C@@H](C[C@H]2OCc2c(-c3c(Cl)cccc3Cl)noc2C2CC2)N1c1ccc(C(=O)O)cc1
Result: 6.4

Task: What about this compound? O=C(NS(=O)(=O)C1CC1)c1cnc(N2C[C@@H]3C[C@H]2C[C@H]3OCc2c(-c3c(Cl)cccc3Cl)noc2C2CC2)c(F)c1
Result: 8.6

Task: What about this compound? O=C(O)c1cc(C2CC3(CCOCC3)C2)c2nc(N3C(=O)[C@@H]4C[C@H]3C[C@H]4OCc3c(-c4c(Cl)cccc4Cl)noc3C3CC3)sc2c1
Result: 1

* * *

Target: human Farnesoid X receptor ligand-binding domain/Gal4 DNA binding domain chimera (Homo sapiens (Human), UniProt Q96RI1)
Sequence (P04386 1-147 partner, one chain of several): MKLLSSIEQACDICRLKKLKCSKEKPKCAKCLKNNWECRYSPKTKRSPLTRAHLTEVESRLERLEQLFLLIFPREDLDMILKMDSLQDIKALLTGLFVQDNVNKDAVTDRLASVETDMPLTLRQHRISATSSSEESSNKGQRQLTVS
Assay: Cell-based assay of FXR activation (FXR-UAS-bla HEK 293T beta-lactamase reporter)
Settings: cellular FXR beta-lactamase reporter assay, FXR-UAS-bla HEK 293T cells, 16 h; pEC50 = -log EC50
Protocol: FXR activation was measured using a cell line and procedure obtained from Life Technologies (Cat # K1691). FXR-UAS-bla HEK 293T cells contain a human Farnesoid X receptor ligand-binding domain/Gal4 DNA binding domain chimera stably integrated into the CellSensor® UAS-bla HEK 293T cell line. […] Activation of FXR by bound ligands results in transcriptional activation of the beta-lactamase reporter gene, which is detected via assay of beta-lactamase activity. […]
pEC50: −log10 of the molar value.
Respond with 1 for pEC50 values of 9 and above, -1 for values below.

CC(C)(Cc1ccc(N2C[C@@H]3C[C@H]2C[C@H]3OCc2c(-c3c(Cl)cccc3Cl)noc2C2CC2)cc1F)C(=O)O : -1
Cc1cccc(Cl)c1-c1noc(C2(F)CC2)c1CO[C@@H]1C[C@@H]2C[C@H]1CN2c1ccc(C(=O)O)c(F)c1 : -1
O=C(NS(=O)(=O)CCC1CCOC1)c1ccc(N2C(=O)[C@@H]3C[C@H]2C[C@H]3OCc2c(-c3c(Cl)cccc3Cl)noc2C2CC2)cc1 (stereo partly shown) : -1
CC(C)c1cc(C(=O)O)cc2sc(N3C[C@@H]4C[C@H]3C[C@H]4OCc3c(-c4c(Cl)cccc4Cl)noc3C3CC3)nc12 : -1
O=C1OCc2cc(N3C[C@@H]4C[C@H]3C[C@H]4OCc3c(-c4c(Cl)cccc4Cl)noc3C3CC3)ccc21 : -1

Task: Reported pEC50 at or above 9? CCCS(=O)(=O)NC(=O)c1ccc(N2C[C@@H]3C[C@H]2C[C@H]3OCc2c(-c3ccccc3C(F)(F)F)noc2C2CC2)c(F)c1
Result: 1

Task: What about this compound? O=C(O)c1nnc(N2C[C@@H]3C[C@H]2C[C@H]3OCc2c(-c3c(Cl)cccc3Cl)noc2C2CC2)s1
Result: -1

* * *

Target: human Farnesoid X receptor ligand-binding domain/Gal4 DNA binding domain chimera (Homo sapiens (Human), UniProt Q96RI1)
Test: Cell-based assay of FXR activation (FXR-UAS-bla HEK 293T beta-lactamase reporter)
Settings: HEK-293T; extent of activation relative to GW4064; cellular FXR beta-lactamase reporter assay; read-out: % Efficacy
Listed here are molecules together with their documented Emax.
Answer format: value, then unit.

# annotated cases, reported Emax shown
O=C(NS(=O)(=O)C1CCOCC1)c1ccc(N2C[C@@H]3C[C@H]2C[C@H]3OCc2c(C3CCC4(CC3)CC4)noc2C2CC2)c(F)c1 : 104%
O=C(O)c1cc(C2CCC2)c2nc(N3C[C@@H]4C[C@H]3C[C@H]4OCc3c(C4CCC5(CC4)CC5)noc3C3CC3)sc2c1 : 117%

The record that follows has no Emax shown yet.
Task: Recorded Emax of CCCCCS(=O)(=O)NC(=O)c1ccc(N2C[C@@H]3C[C@H]2C[C@H]3OCc2c(-c3c(Cl)cccc3Cl)noc2C2CC2)c(F)c1 , please.
Result: 111%

* * *

Molecular target: ligand binding domain of human FXR (Homo sapiens (Human), UniProt Q96RI1)
Sequence (Q96RI1 262-486): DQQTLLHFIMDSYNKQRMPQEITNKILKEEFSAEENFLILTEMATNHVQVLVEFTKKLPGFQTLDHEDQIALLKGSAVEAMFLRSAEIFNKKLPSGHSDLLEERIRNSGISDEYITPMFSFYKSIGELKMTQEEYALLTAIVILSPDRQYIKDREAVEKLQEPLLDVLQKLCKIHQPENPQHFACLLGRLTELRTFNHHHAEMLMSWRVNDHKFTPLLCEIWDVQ
Test: FXR ligand binding assay (LanthaScreen TR-FRET, SRC2-2 peptide recruitment)
Details: -log EC50, concentration required to produce 50% activation
Listed here are compounds together with their documented pEC50.
// response body must contain only the number

# annotated cases, reported pEC50 shown
CN(CC(=O)O)S(=O)(=O)c1ccc(N2C[C@@H]3C[C@H]2C[C@H]3OCc2c(-c3c(Cl)cccc3Cl)noc2C2CC2)cc1 [Compound I-143] : 8
O=C(O)c1cc(C2CCOC2)c2nc(N3C(=O)[C@@H]4C[C@H]3C[C@H]4OCc3c(-c4c(Cl)cccc4Cl)noc3C3CC3)sc2c1 (stereo partly drawn) [Compound I-299] : 8
O=P(O)(O)Cc1ccc(N2C[C@@H]3C[C@H]2C[C@H]3OCc2c(-c3c(Cl)cccc3Cl)noc2C2CC2)cc1 [Compound I-176] : 7.5
O=C(CCc1ccc(N2C[C@@H]3C[C@H]2C[C@H]3OCc2c(-c3c(Cl)cccc3Cl)noc2C2CC2)c(F)c1)NS(=O)(=O)C1CC1 [Compound I-237] : 8.7
Cc1cccc(Cl)c1-c1noc(C2(F)CC2)c1CO[C@@H]1C[C@@H]2C[C@H]1CN2c1ccc(C(=O)O)c(F)c1 [Compound I-124] : 9.7

The record that follows has no pEC50 shown yet.
Task: Recorded pEC50 of CS(=O)(=O)CCNC(=O)c1ccc(N2C[C@@H]3C[C@H]2C[C@H]3OCc2c(-c3c(Cl)cccc3Cl)noc2C2CC2)cc1 [Compound I-169] , please.
Result: 8.4

* * *

Target: ligand binding domain of human FXR (Homo sapiens (Human), UniProt Q96RI1)
Experiment: FXR ligand binding assay (LanthaScreen TR-FRET, SRC2-2 peptide recruitment)
Details: -log EC50, concentration required to produce 50% activation
Description: The affinity of FXR ligands for the ligand binding domain of FXR was determined using a commercially available human FXR ligand binding assay (LanthaScreen, Thermofisher Cat # PV4833). […] Test compounds are dissolved in DMSO and a 3-fold serial dilution series is generated, then further diluted into assay buffer. […] The reaction is incubated at room temperature for 1 hour, then the FRET signal is measured as the ratio of the 520 nm/495 nm emission following excitation at 340 nm. […]
PROPERTY: pEC50
// response body must contain only the number

# annotated cases, reported pEC50 shown
CCCS(=O)(=O)NC(=O)c1cc(F)c2nc(N3C[C@@H]4C[C@H]3C[C@H]4OC(=O)c3c(-c4c(Cl)cccc4Cl)noc3C3CC3)sc2c1 : 7.6
N#Cc1cc(N2C[C@@H]3C[C@H]2C[C@H]3OCc2c(-c3c(Cl)cccc3Cl)noc2C2CC2)ccc1C(=O)O : 9.8
O=C(O)c1cc([C@H]2CCOC2)c2nc(N3C[C@@H]4C[C@H]3C[C@H]4OCc3c(-c4c(F)cccc4Cl)noc3C3CC3)sc2c1 : 8.4

Task: Recorded pEC50 of CS(=O)(=O)NC(=O)c1ccc(N2C[C@@H]3C[C@H]2C[C@H]3OCc2c(-c3c(Cl)cccc3Cl)noc2C2CC2)cc1 , please.
Result: 8.4

Task: What about this compound? O=C(NS(=O)(=O)C1CC1)c1ccc(N2C[C@@H]3C[C@H]2C[C@H]3OCc2c(-c3c(Cl)cccc3Cl)noc2C2CC2)c(F)c1
Result: 7.9

Task: What about this compound? Cc1cccc(Cl)c1-c1noc(C2CC2)c1CO[C@@H]1C[C@@H]2C[C@H]1CN2c1ccc(CCC(=O)NS(=O)(=O)C2CC2)cc1F
Result: 8.2

Task: What about this compound? O=C(NS(=O)(=O)CCCCCCCCCCN1CCC1)c1ccc(N2C[C@@H]3C[C@H]2C[C@H]3OCc2c(-c3c(Cl)cccc3Cl)noc2C2CC2)c(F)c1
Result: 8.1

Task: What about this compound? O=C(NS(=O)(=O)CC1CCOCC1)c1ccc(N2C(=O)[C@@H]3C[C@H]2C[C@H]3OCc2c(-c3c(Cl)cccc3Cl)noc2C2CC2)cc1
Result: 8.6

Task: What about this compound? O=C(NS(=O)(=O)CCOC(=O)C1CC1)c1ccc(N2C[C@@H]3C[C@H]2C[C@H]3OCc2c(-c3c(Cl)cccc3Cl)noc2C2CC2)cc1
Result: 9.2

Task: What about this compound? O=C(O)c1cc(C2CCCC2)c2nc(N3C[C@@H]4C[C@H]3C[C@H]4OCc3c(C4CCC5(CC4)CC5)noc3C3CC3)sc2c1
Result: 7

Task: What about this compound? O=C(NS(=O)(=O)[C@H]1CC[C@H](O)CC1)c1ccc(N2C[C@@H]3C[C@H]2C[C@H]3OCc2c(-c3c(Cl)cccc3Cl)noc2C2CC2)cc1
Result: 8.8

Task: What about this compound? O=C(NS(=O)(=O)C1CC1)c1ccc(N2C[C@@H]3C[C@H]2C[C@H]3OCc2c(-c3c(Cl)cccc3Cl)noc2C2(F)CC2)nc1
Result: 7.8

Task: What about this compound? O=C(O)CCc1ccc(N2C[C@@H]3C[C@H]2C[C@H]3OCc2c(-c3c(Cl)cccc3Cl)noc2C2CC2)cc1
Result: 8.1

Task: What about this compound? O=C1NCCc2cc(N3C[C@@H]4C[C@H]3C[C@H]4OCc3c(-c4c(Cl)cccc4Cl)noc3C3CC3)ccc21
Result: 9

Task: What about this compound? CCOc1cc(C(=O)O)cc2sc(N3C[C@@H]4C[C@H]3C[C@H]4OCc3c(-c4c(Cl)cccc4Cl)noc3C3CC3)nc12
Result: 8.8

Task: What about this compound? O=C(O)c1nnc(N2C[C@@H]3C[C@H]2C[C@H]3OCc2c(-c3c(Cl)cccc3Cl)noc2C2CC2)s1
Result: 6.9

Task: What about this compound? O=C(O)CNC(=O)c1ccc(N2C[C@@H]3C[C@H]2C[C@H]3OCc2c(-c3c(Cl)cccc3Cl)noc2C2CC2)cc1F
Result: 8.7

Task: What about this compound? O=C(O)c1ccc(N2C[C@@H]3C[C@H]2C[C@H]3OCc2c(-c3c(Cl)cccc3Cl)noc2C2(F)CC2)cc1
Result: 8.5

Task: What about this compound? COc1cc(Cl)c(-c2noc(C3CC3)c2CO[C@@H]2C[C@@H]3C[C@H]2CN3c2nc3c(F)cc(C(=O)O)cc3s2)c(Cl)c1
Result: 8.7

Task: What about this compound? O=C(O)c1cc(C2CCCC2)c2nc(N3C[C@H]4C[C@@H]3C[C@@H]4OCc3c(-c4c(Cl)cccc4Cl)noc3C3CC3)sc2c1
Result: 8.9

Task: What about this compound? O=C(O)c1cc(F)c2nc(N3C[C@@H]4C[C@H]3C[C@H]4OCc3c(-c4c(Cl)cccc4Cl)noc3C3CC3)sc2c1
Result: 9

Task: What about this compound? CCCCCCCCS(=O)(=O)NC(=O)c1ccc(N2C[C@@H]3C[C@H]2C[C@H]3OCc2c(-c3c(Cl)cccc3Cl)noc2C2CC2)c(F)c1
Result: 7.9

Task: What about this compound? O=C(NS(=O)(=O)C1CCCC1)c1ccc(N2C(=O)[C@@H]3C[C@H]2C[C@H]3OCc2c(-c3c(Cl)cccc3Cl)noc2C2CC2)cn1
Result: 8.3

FYI, the data here is from patent US10793568B2.
